assay: logD by shake flask method (octanol / PBS pH 7.4, HPLC); type: physicochemical; conditions: octanol / PBS pH 7.4, shake flask
measurement_label: logD

Look over these answered cases.
Form field logD, entry CNC(=O)C(=O)CC[C@H](NC(=O)c1ccnn1C)C(=O)Nc1cccn(CC(=O)NC2C3CC4CC(C3)CC2C4)c1=O (stereo partly drawn) : < 1

Form field logD, entry CNC(=O)C(=O)CC[C@H](NC(=O)c1ccc2ccoc2c1)C(=O)Nc1cccn(CC(=O)NC2C3CC4CC2CC(C(N)=O)(C4)C3)c1=O (stereo partly drawn) : < 1

Form field logD, entry CNC(=O)C(=O)CC[C@H](NC(=O)c1oc2ccccc2c1C)C(=O)Nc1cccn(CC23CC4CC(CC(C4)C2)C3)c1=O : 3 to 5

Form field logD, entry CNC(=O)C(=O)CC[C@H](NC(=O)c1oc2ccccc2c1C)C(=O)Nc1cccn(CC(=O)NC2C3CC4CC2CC(C)(C4)C3)c1=O (stereo partly drawn) : 3 to 5

Form field logD, entry CNC(=O)C(=O)CC[C@H](NC(=O)c1nc(Br)sc1Br)C(=O)Nc1cccn(CC(=O)NC2C3CC4CC(C3)CC2C4)c1=O (stereo partly drawn) : 1 to 3

Then there is this molecule:
Form field logD, entry CNC(=O)C(=O)CC[C@H](NC(=O)c1oc2ccccc2c1C)C(=O)Nc1cccn(CC(=O)NC2C3CC4CC2CC(Cl)(C4)C3)c1=O (stereo partly drawn) : 1 to 3

###

Below is a list of entries, each paired with its recorded Papp value.
assay: Caco-2 permeability assay (CacoReady kit); assay type: in vitro ADME; details: human, Caco-2, Caco-2 barrier, CacoReady kit; above 1×10^−6 cm/s classified as permeable

Look over these answered cases.
Form field Papp, entry CNC(=O)C(=O)CC[C@H](NC(=O)c1oc2ccccc2c1C)C(=O)Nc1cccn(CC(=O)NC2C3CC4CC2CC(F)(C4)C3)c1=O (stereo partly drawn) : 1 to 10 ×10⁻⁶ cm/s

Form field Papp, entry CNC(=O)C(=O)CC[C@H](NC(=O)c1ccc(Cl)o1)C(=O)Nc1cccn(CC(=O)NC2C3CC4CC(C3)CC2C4)c1=O (stereo partly drawn) : 1 to 10 ×10⁻⁶ cm/s

Then there is this compound:
Form field Papp, entry O=C(Cn1cccc(NC(=O)[C@H](CCC(=O)C(=O)NC2CCCCC2)NC(=O)c2cc3ccccc3nn2)c1=O)NC12CC(C1)C2 : < 1 ×10⁻⁶ cm/s

###

Below is a list of entries, each paired with its recorded Papp value.
experiment: Caco-2 permeability assay (CacoReady kit); assay type: in vitro ADME; details: human, Caco-2, Caco-2 barrier, CacoReady kit; above 1×10^−6 cm/s classified as permeable

Look over these answered cases.
Form field Papp, entry CNC(=O)C(=O)CC[C@H](NC(=O)c1oc2ccccc2c1Cl)C(=O)Nc1cccn(CC(=O)NC2C3CC4CC(C3)CC2C4)c1=O (stereo partly drawn) : 1 to 10 ×10⁻⁶ cm/s

Form field Papp, entry CNC(=O)C(=O)CC[C@H](NC(=O)c1oc2ccccc2c1C)C(=O)Nc1cccn(CC(=O)NC2C3CC4CC2CC(Br)(C4)C3)c1=O (stereo partly drawn) : 1 to 10 ×10⁻⁶ cm/s

Others:
Form field Papp, entry CNC(=O)C(=O)CC[C@H](NC(=O)c1cc2ccccc2[nH]1)C(=O)Nc1cccn(CC(=O)NC2C3CC4CC(C3)CC2C4)c1=O (stereo partly drawn) : 1 to 10 ×10⁻⁶ cm/s

Form field Papp, entry CNC(=O)C(=O)CC[C@H](NC(=O)c1sc(C(F)(F)F)nc1Br)C(=O)Nc1cccn(CC(=O)NC2C3CC4CC(C3)CC2C4)c1=O (stereo partly drawn) : 1 to 10 ×10⁻⁶ cm/s

Form field Papp, entry CNC(=O)C(=O)CC[C@H](NC(=O)c1snnc1C=O)C(=O)Nc1cccn(CC(=O)NC2C3CC4CC(C3)CC2C4)c1=O (stereo partly drawn) : < 1 ×10⁻⁶ cm/s

Form field Papp, entry NC(=O)C(=O)CC[C@H](NC(=O)c1cc2ccccc2o1)C(=O)Nc1cccn(CC(=O)NC2C3CC4CC(C3)CC2C4)c1=O (stereo partly drawn) : 1 to 10 ×10⁻⁶ cm/s
